# subject.of.test: Tissue alpha-L-fucosidase (Bos taurus)
# assay.remarks: Compound was tested for the inhibitory activity against alpha-L-fucosidase from bovine epididymis
Here the recorded Ki is given for each entry.
Please reply with the bare figure in µM and do not write the unit itself.

Below, 5 compounds whose answers are already recorded.
>  <compound>
CC1SC(Sc2ccc([N+](=O)[O-])cc2)C(O)[C@H](O)C1O (stereo partly specified)

>  <Ki (µM)>
3.3

$$$$
>  <compound>
CC1SC(OP(=O)(O)O)C(O)C(O)C1O (stereo unspecified)

>  <Ki (µM)>
406

$$$$
>  <compound>
CC1SC(OP(=O)(O)OCc2ccccc2)C(O)C(O)C1O (stereo unspecified)

>  <Ki (µM)>
33

$$$$
>  <compound>
CSC1SC(C)C(O)C(O)C1O (stereo unspecified)

>  <Ki (µM)>
2300

$$$$
>  <compound>
CC1SC(Oc2ccc([N+](=O)[O-])cc2)C(O)C(O)C1O (stereo unspecified)

>  <Ki (µM)>
118

$$$$

With those in mind, consider the next compound.
Input: # return recorded Ki for entry COC1SC(C)C(O)C(O)C1O (stereo unspecified)
Output: 690
